Assay: reversal of MRP1-mediated doxorubicin resistance, pilot screen, H69AR cells, doxorubicin co-treatment (AID 601)
Conditions: H69AR cells + 2 uM doxorubicin, CellTiter-Glo, 72 h; measured here: viability with 2 uM doxorubicin; at 10 µM; stronger effect = lower value
# Lookup of reported viability keyed by entry
Answer as a quantity: numeral, then unit.

According to the records, this compound `O=C(Nc1ccc(Cc2ccncc2)cc1)C1CC1` displays viability of 82.1%

According to the records, this compound O=C(NC1CCc2ccccc21)C1CCN(S(=O)(=O)c2ccc(-n3cnnn3)cc2)CC1 (configuration not stated) displays viability of 63.5%

Value of viability reported for the compound `N#Cc1c(N)nc(SCc2ccncc2)c(C#N)c1-c1cccs1` is 14.9%

Quick note, viability for `CCOC(=O)CSc1nnc(CNC(=O)c2ccc(OC)c(OC)c2)n1C` landed at 97.8%

The reported viability of the compound `Cc1csc(NC(=O)Nc2cccc(Cl)c2)n1` was 90%

Entry under test: CCOc1ccccc1N1C(=O)CC(Sc2ncccc2C(=O)O)C1=O (configuration not stated) . Its viability was 87.2%

Note to self: viability recorded for Cn1c(C(=O)OCC(=O)NCC2CCCO2)cc2sccc21 (configuration not stated) was 89.6%

---

Quick reference for inhibition among some molecules
Assay: 384-well plate pilot, post-Golgi transport modulator project, inhibition of yeast transport mutant growth (AID 636)
Settings: absorbance 615 nm, about 18 h, stronger effect = higher value
Numeric answer only, unit % assumed.

Reference set (5 entries):
INSERT INTO assay_data (molecule, quantity_kind, reported_value) VALUES
  ('CCOc1ccc(C2C(C(=O)OC)=CN(CCOC)C=C2C(=O)OC)cc1', 'inhibition', 0.64),
  ('Cc1cc(C)c(C#N)c(SCc2ccc(C#N)cc2)n1', 'inhibition', -2.27),
  ('O=C(O)COc1cccc(NC(=O)C2CCCO2)c1 (centres undefined)', 'inhibition', 0.14),
  ('Clc1ccc(OCCCn2cncn2)cc1Cl', 'inhibition', 2.03),
  ('CCOCC(=O)Nc1c(C(=O)Nc2ccc(OC)cc2OC)oc2ccccc12', 'inhibition', -6.62);

In plain terms, `COc1ccc(OC)c(S(=O)(=O)Nc2ccccc2SC)c1` has a documented inhibition of -5.34

# inhibition of `O=C(O)c1cccn2c(=O)c3ccccc3nc12` = -2.8

Please fill in: inhibition reported for `CCOc1ccc(CCNC(=O)CCc2nc(-c3ccc(OC)cc3)no2)cc1OCC` = -1.05

# molecule CCCC1c2ccc(C)n2CCN1C(=O)Nc1ccccc1Cl (centres undefined) ; its inhibition = 2.73

Documented inhibition of `CS(=O)(=O)N(CC(=O)Nc1ccc2c(c1)OCO2)Cc1ccc(Cl)cc1` : -6.58

Recorded inhibition (molecule Cc1ccc(CN2C(=O)CCC2C(=O)NCCCN2CCCC(C)C2)cc1 (centres undefined) ): -3.07

So for CCOc1ccc2nc(NC(=O)C3CCCN(S(=O)(=O)c4c(C)noc4C)C3)sc2c1 (centres undefined) , the logged inhibition turned out to be 6.28

For record `O=c1/c(=C/c2ccco2)sc2nc(-c3ccccc3Br)nn12` the listed inhibition is -6.8

---

Assay: reversal of MRP1-mediated doxorubicin resistance, pilot screen, H69AR cells, doxorubicin co-treatment (AID 601)
Conditions: H69AR cells, CellTiter-Glo, 72 h; compound alone cytotoxicity; at 10 µM
Quantity kind: viability
# answer = value followed by unit

INSERT INTO results (molecule, reported_value) VALUES
  ('O=S1(=O)CCN2C(=N1)SC1=C2CCN(Cc2ccccc2)C1', '89%'),
  ('CCc1cccc(NC(=O)CN(C)S(=O)(=O)c2cccc3nsnc23)c1', '91.8%'),
  ('Cc1cccc(NC(=O)CCn2ccnc2C)c1', '92.3%'),
  ('O=C(Nc1ncnc2sc3c(c12)CCC3)c1ccco1', '80.1%'),
  ('CC1(C)OC(=O)N(c2cccnc2)C1(C)O (stereo not drawn)', '91.5%');

molecule `CC(C)OC(=O)CSc1nnnn1-c1ccc2c(c1)OCCO2` , viability observed: 88.6%

Form: molecule = `CCOCCn1c(CN2CCC(Cc3ccccc3)CC2)nc2c1c(=O)n(C)c(=O)n2C` ; viability = 87.7%

`Cc1onc(-c2ccccc2)c1C(=O)Nc1sc2c(c1C(N)=O)CCC2` has a reported viability of 62.1%

Measured viability of COc1ccc(OCCN2C(=O)NC(C)(c3ccc(C)cc3)C2=O)cc1 (stereo not drawn) : 91.1%

The reported value for `O=C(O)Cc1ccc(-c2ccccc2)cc1` in terms of viability is 85.7%

---

Assay: SK-BR-3 cell growth inhibitors, pilot screen, 24 h, human (AID 572);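 note: compound exposure lasted between 18 and 24 h rather than exactly 24 h; 100% = carrier-treated control wells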
Settings: SK-BR-3 viability, CellTiter-Glo luminescence, at 10 µM, stronger effect = lower value
Quantity kind: viability (%)
Write the number in % without appending the unit.

Use the examples below as a reference point.
INSERT INTO measurements (compound, reported_value) VALUES
  ('COC(=O)c1c(NC(=O)CCc2ccc(C)o2)sc(C)c1C', 112),
  ('COCCn1c(C)cc(C(=O)COC(=O)c2ccc(N3CCCC3=O)cc2)c1C', 95);

The recorded viability for entry CCOc1ccc(NC(=O)CC2NCCNC2=O)cc1 (stereo not drawn) equals 125

Short answer for `COc1ccc(-c2ccc(-c3noc(-c4cccs4)n3)c(OC)n2)cc1` : viability was 77

---

Experiment: reversal of MRP1-mediated doxorubicin resistance, pilot screen, H69AR cells, doxorubicin co-treatment (AID 601)
Conditions: H69AR cells, CellTiter-Glo, 72 h; compound alone cytotoxicity; at 10 µM
# viability per record follows
Just the number in %, nothing appended.

INSERT INTO assay_data (sample_smiles, quantity_kind, measure_unit, reported_value) VALUES
  ('COc1ccc(-n2cc(-c3ccccc3)c3c(N4CCN(CCO)CC4)ncnc32)cc1', 'viability', '%', 56.2),
  ('CN1[C@@H](CC(=O)c2ccccc2)CCC[C@H]1C[C@H](O)c1ccccc1', 'viability', '%', 84.1),
  ('CN(c1cccc(NC(=O)COc2ccccc2)c1)S(C)(=O)=O', 'viability', '%', 96);

// next entry
Recorded result, `O=S(=O)(c1cccc2cnccc12)N1CCCNCC1` , viability: 97.4

---

Assay: reversal of MRP1-mediated doxorubicin resistance, pilot screen, H69AR cells, doxorubicin co-treatment (AID 601)
Conditions: H69AR cells + 2 uM doxorubicin, CellTiter-Glo, 72 h; at 10 µM; stronger effect = higher value
Activity calls are given as the source filed them.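 The calls were made as follows: active = viability loss from added drug above about 55%, and viability with drug at most 40%, in both replicates (limit read from the data, passing the limit was not always enough); inconclusive = both conditions met in only one replicate; inactive = neither replicate meets both conditions.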
Quantity kind: differential viability (reversal)

// known answers, use as guide
INSERT INTO measurements (molecule, quantity_kind, reported_value) VALUES
  ('COc1ccc(C2C(C#N)=C(N)Oc3cc4c(cc32)OCO4)cc1 (centres undefined)', 'differential viability (reversal)', '-49.4% (inactive)'),
  ('Cn1cccc1Cc1nnc(SCC(=O)Nc2ccccc2F)n1CCc1ccccc1', 'differential viability (reversal)', '1.68% (inactive)'),
  ('CCc1nnc(NC(=O)c2ccc(-c3cccc(C(F)(F)F)c3)o2)s1', 'differential viability (reversal)', '11.2% (inactive)');

Value of measured differential viability (reversal) for the entry `CC(=O)N=c1sc(S(N)(=O)=O)nn1C` : 21.1% (inactive)

So for CCOC(=O)C(NC(=O)CC)(Nc1ccc(S(=O)(=O)Nc2onc(C)c2C)cc1)C(F)(F)F (centres undefined) , the logged differential viability (reversal) turned out to be 8.86% (inactive)

GET /value?item= `Cc1cccc(NC(=O)c2ccc3ccccc3n2)n1` &field=differential viability (reversal) returns -18.1% (inactive)

In plain terms, `Cc1cc(NC(=O)c2cnn3c(C(F)F)cc(C4CC4)nc23)no1` has a documented differential viability (reversal) of -12.8% (inactive)

So for `Cc1cc(S(=O)(=O)N(Cc2ccccc2)Cc2ccc(N(C)C)cc2)ccc1-n1cnnn1` , the logged differential viability (reversal) turned out to be -3.54% (inactive)

Lookup result for CCOC(=O)C1(C(=O)OCC)C(c2ccccc2)CC(O)N1C(C)=O (centres undefined) ; measured differential viability (reversal): 6.16% (inactive)

---

Test: reversal of MRP1-mediated doxorubicin resistance, pilot screen, H69AR cells, doxorubicin co-treatment (AID 601)
Conditions: H69AR cells + 2 uM doxorubicin, CellTiter-Glo, 72 h; at 10 µM; stronger effect = higher value
Quantity kind: differential viability (reversal) (%)
All answers are understood in %, so give the number only.

# example entries with known answers
INSERT INTO assay_data (compound, reported_value) VALUES
  ('CCOC(=O)c1cnc2c(OC)cccc2c1N1CCN(c2ccc(OC)cc2)CC1', 20.9),
  ('COc1ccc(C)cc1NC(=O)CCC(=O)Nc1ccc2nc(N3CCN(C)CC3)cc(C)c2c1', 6.93);

// field: differential viability (reversal); key: `CN(C)C(=O)CN(C)S(=O)(=O)c1ccc(Cl)cc1` ; value = -6.11

Per the records, this compound ( `NC(=O)C1(N2CCCCC2)CCN(C(=O)Nc2ccccc2C(F)(F)F)CC1` ) has differential viability (reversal) equal to 4.2

In plain terms, CC(C)C(C(=O)Nc1ccc2c(c1)OCO2)N1C(=O)c2ccccc2C1=O (stereo not drawn) has a documented differential viability (reversal) of 2.06

So, CCOc1ccc(NC(=O)CC2NCCNC2=O)cc1 (stereo not drawn) ? Its differential viability (reversal) was 2.51

Sample `CCCCc1ccc(NC(=O)COCC)cc1` ; differential viability (reversal) observed: 7.21

The compound `CC(=O)Nc1ccc(S(=O)(=O)CCC#N)cc1` showed differential viability (reversal) equal to -6.28
